# Target: voltage-dependent sodium channels
pKi: −log10 of the molar value.
Readout kind: pKi

>>> number("O=C(/C=C/c1ccc(O)c(O)c1)O[C@H](Cc1ccc(O)c(O)c1)C(=O)O [rosmarinic acid]")
2.84
